- TARGET OR SYSTEM: ORAI1/STIM1 (Homo sapiens) (UniProt Q96D31+Q13586)
- Sequence (Q13586 23-685 partner limits assumed): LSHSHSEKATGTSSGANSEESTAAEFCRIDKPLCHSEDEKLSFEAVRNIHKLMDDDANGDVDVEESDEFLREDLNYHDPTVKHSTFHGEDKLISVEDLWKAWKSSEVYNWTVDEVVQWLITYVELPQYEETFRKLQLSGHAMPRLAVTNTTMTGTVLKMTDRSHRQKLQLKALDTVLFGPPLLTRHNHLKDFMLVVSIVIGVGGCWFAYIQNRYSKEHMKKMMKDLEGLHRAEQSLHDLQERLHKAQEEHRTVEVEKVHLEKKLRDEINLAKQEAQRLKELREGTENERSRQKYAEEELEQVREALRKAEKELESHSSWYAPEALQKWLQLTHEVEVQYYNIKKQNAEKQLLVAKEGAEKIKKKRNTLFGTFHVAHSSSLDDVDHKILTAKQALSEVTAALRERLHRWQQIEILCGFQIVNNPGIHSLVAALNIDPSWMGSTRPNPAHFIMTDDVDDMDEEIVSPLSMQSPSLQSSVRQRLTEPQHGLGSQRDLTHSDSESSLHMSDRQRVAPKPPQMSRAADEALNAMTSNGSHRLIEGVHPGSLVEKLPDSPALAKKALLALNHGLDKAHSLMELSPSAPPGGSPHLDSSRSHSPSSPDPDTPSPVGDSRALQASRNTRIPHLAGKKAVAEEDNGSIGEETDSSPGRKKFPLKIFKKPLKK
- Sequence (Q96D31 whole entry): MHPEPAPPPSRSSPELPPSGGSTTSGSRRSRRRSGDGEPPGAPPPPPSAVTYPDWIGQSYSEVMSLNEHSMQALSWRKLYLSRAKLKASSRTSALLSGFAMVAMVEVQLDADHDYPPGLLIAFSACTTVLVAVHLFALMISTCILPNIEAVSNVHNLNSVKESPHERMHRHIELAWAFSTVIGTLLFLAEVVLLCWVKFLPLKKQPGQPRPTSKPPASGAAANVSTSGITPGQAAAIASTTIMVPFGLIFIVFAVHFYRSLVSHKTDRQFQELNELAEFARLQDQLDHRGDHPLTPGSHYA
- ASSAY SUMMARY: Inhibition of STIM1/Orai1 (unknown origin) expressed in HEK293 cells assessed as reduction in tBHQ-induced calcium response at 10 uM relative to control
- Format: cell-based
- RUN CONDITIONS: dose 10.0 µM
ENDPOINT NAME: inhibition
Kindly write the number and append the unit.

Entry CSc1cccc(-c2ccc(-c3cn(-c4cccc(C(=O)O)c4)nn3)cc2)c1 — recorded inhibition = 0%

For COc1ccc(F)c(-c2ccc(-n3cc(-c4cccc(C(=O)O)c4)nn3)cc2)c1 the compound record lists inhibition as 74.7%

Record COc1ccc(OC)c(-c2ccc(-c3cn(-c4ccnc(C(=O)O)c4)nn3)cc2)c1 , field inhibition: 57.2%

// field: inhibition; key: O=C(O)c1cccc(-n2cc(-c3ccc(-c4ccc5c(c4)OCCO5)cc3)nn2)c1 ; value = 81.1%

Entry COc1ccccc1-c1ccc(-n2cc(-c3cccc(C(=O)O)c3)nn2)cc1 — recorded inhibition = 45.9%

The compound listed as COc1ccc(OC)c(-c2ccc(-n3cc(-c4ccccn4)nn3)cc2)c1 has a reported inhibition of 0%

inhibition recorded for this compound, COc1cccc(-c2ccc(-c3cn(-c4cccc(C(=O)O)c4)nn3)cc2)c1OC , is 93.3%

# compound O=C(O)c1cccc(-n2cc(-c3ccc(-c4cccc5c4OCCO5)cc3)nn2)c1 ; its inhibition = 44.1%

Briefly, inhibition measured for COc1ccc(F)c(-c2ccc(-c3cn(-c4cccc(C(=O)O)c4)nn3)cc2)c1 : 88.9%

Consider COc1ccc(OC)c(-c2ccc(-n3cc(-c4ccnc(C(=O)O)c4)nn3)cc2)c1 . Its measured inhibition is 79.9%

* * *

- System: HEK293
- ASSAY SUMMARY: Cytotoxicity in HEK293 cells assessed as cell viability at 50 uM after 72 hrs in presence of excess uridine by MTT assay
- Assay type: cell-based
- RUN CONDITIONS: human, hek293, 72 h
ENDPOINT NAME: Activity

Examples with answers:
>>> df
                               smiles_input  endpoint_name  experimental_result
0  COc1cccc(-c2ccc(-n3cc(-c4cccc(C(=O)O)c4)nn3)cc2)c1       Activity            Non-Toxic
1  COc1cccc(-c2ccc(-n3cc(-c4cccc(C(=O)O)c4)nn3)cc2)c1OC       Activity            Non-Toxic
2  O=C(O)c1cccc(-c2cn(-c3ccc(-c4ccc5c(c4)OCCO5)cc3)nn2)c1       Activity            Non-Toxic
3  COc1ccc(OC)c(-c2ccc(NC(=O)c3ccncc3F)cc2)c1       Activity            Non-Toxic

Could you now consider this next molecule?
Record O=C(Nc1ccc(-n2nc(C(F)(F)F)cc2C(F)(F)F)cc1)c1ccncc1F . Reported Activity: Toxic

* * *

- TARGET OR SYSTEM: ORAI1/STIM1 (Homo sapiens) (UniProt Q96D31+Q13586)
- ASSAY SUMMARY: Inhibition of STIM1/Orai1 (unknown origin) expressed in HEK293 cells assessed as reduction in tBHQ-induced calcium response at 10 uM relative to control
- Type: cell-based
- RUN CONDITIONS: dose 3.0 µM, in the assay text read “at 3 uM” for “at 10 uM”
Provide the reported inhibition of each item.
Please respond with the number in % and leave the unit unwritten.

For O=C(O)c1cccc(-n2cc(-c3ccc(-c4ccccc4)cc3)nn2)c1 the molecule record lists inhibition as 1.8

get_value(item= O=C(O)c1cccc(-c2cn(-c3ccc(-c4cccc(O)c4)cc3)nn2)c1 , readout=inhibition) returns 0

Value of measured inhibition for the entry COc1ccc(-c2ccc(-n3cc(-c4cccc(C(=O)O)c4)nn3)cc2)cc1OC : 54.3

// inhibition lookup, molecule = CSc1cccc(-c2ccc(-n3cc(-c4cccc(C(=O)O)c4)nn3)cc2)c1 , result: 23.6

For record COc1cc(OC)cc(-c2ccc(-n3cc(-c4cccc(C(=O)O)c4)nn3)cc2)c1 the listed inhibition is 73.8

// inhibition lookup, molecule = COc1ccccc1-c1ccc(-c2cn(-c3cccc(C(=O)O)c3)nn2)cc1 , result: 12

The molecule listed as O=C(O)c1cccc(-c2cn(-c3ccc(-c4cccc5c4OCCO5)cc3)nn2)c1 has a reported inhibition of 70.9

Reported inhibition of COc1cccc(-c2ccc(-n3cc(-c4cccc(C(=O)O)c4)nn3)cc2)c1OC : 96.5

Recorded result, COc1cccc(-c2ccc(-c3cn(-c4cccc(C(=O)O)c4)nn3)cc2)c1 , inhibition: 29.5

The reported value for COc1cccc(-c2ccc(-n3cc(-c4cccc(C(=O)O)c4)nn3)cc2)c1 in terms of inhibition is 85.1

# credit: ChEMBL document CHEMBL4673335
